Entries and their melting point values follow.
Expressed in °C, but write only the number.

// worked examples, melting point included
Request: Give the measured melting point for COc1ccc(-c2n[nH]c3ccc([N+](=O)[O-])cc23)cc1 [Example 21, 3-(4-Methoxyphenyl)-5-nitro-1H-indazole]
Result: 153

Request: Please indicate melting point recorded for FC(F)(F)c1ccc2[nH]nc(-c3ccccc3)c2c1 [Example 5, 3-Phenyl-5-trifluoromethyl-1H-indazole]
Result: 152

Request: Tell me measured melting point for Nc1ccc2[nH]nc(-c3ccccc3)c2c1 [Example 8, 5-Amino-3-phenyl-1H-indazole] please.
Result: 104

Request: Give the reported melting point for this compound. Fc1ccc(-c2n[nH]c3ccccc23)cc1 [Example 4, 3-(4-Fluorophenyl)-1H-indazole]
Result: 126

***
Request: Please report melting point for the following compound: COc1ccccc1-c1n[nH]c2ccccc12 [Example 3, 3-(2-Methoxyphenyl)-1H-indazole]
Result: 99

====

Items are presented alongside their recorded melting point.

Worked set:
Request: Identify melting point associated with the compound COc1ccc(-c2n[nH]c3ccc(N)cc23)cc1.Cl [Example 34]
Result: 240 °C (dec.)

Request: Could you please provide reported melting point for COc1ccc(-c2n[nH]c3ccc([N+](=O)[O-])cc23)cc1OC [Example 23] ? Thanks!
Result: 172 to 173 °C

Below: the item to evaluate.
Request: Specify melting point for "O=[N+]([O-])c1cccc(-c2n[nH]c3ccc([N+](=O)[O-])cc23)c1" and stop.
Result: 249 to 251 °C

====

Measured melting point values are reported for all entries that follow.

Request: Consider the compound O=[N+]([O-])c1ccc2[nH]nc(-c3ccccc3)c2c1 [Example 7, 5-Nitro-3-phenyl-1H-indazole] and give its recorded melting point.
Result: 185 to 186 °C

New cases:
Request: Specify measured melting point for "COc1ccc(-c2n[nH]c3ccc(N)cc23)cc1OC.O=C(O)C(F)(F)F" .
Result: 150 °C (dec.)

Request: Indicate the recorded melting point value for this compound: Fc1ccc2[nH]nc(-c3ccccc3)c2c1 [Example 6, 5-Fluoro-3-phenyl-1H-indazole]
Result: 124 to 125 °C
